test system: MDA-MB-435; test: NCI tumour cell line growth inhibition, 48 h
attribute measured: TGI

Some compounds with known TGI results, for comparison:
{"columns": ["compound", "target under test", "observed result"],
 "data": [
  ["CC(C)(C)OC(=O)N1C(C2=COc3ccccc3O2)=COc2ccccc21", "MDA-MB-435", "> 100 µM"],
  ["C[N+](C)(C)CCOP(=O)(O)OP(=O)([O-])OCC1CCC(n2ccc(N)nc2=O)O1 (stereo not drawn)", "MDA-MB-435", "> 100 µM"]
]}

Shifting focus to the compound that follows.
Report measured TGI; entry is "O=c1oc2ncccc2n1Cc1ccc([N+](=O)[O-])cc1"
> 100 µM

---

test system: HOP-92 NSCLC; experiment: NCI tumour cell line growth inhibition, 48 h
attribute measured: TGI (µM)
All answers are understood in µM, so give the number only.

{"columns": ["molecule", "target under test", "TGI (µM)"],
 "data": [
  ["CCOP(=O)(CCP(=O)(OCC)OCC)OCC.C[CH2][Sn]([Cl])([Cl])[CH2]C", "HOP-92 NSCLC", 39.2]
]}

Attention now turns to another entry.
Fetch value of TGI on HOP-92 NSCLC for C=CCN1C(=O)/C(=c2\sc3n(c2=O)C2C(NN=3)N(CC)C(=O)N2CC)c2ccccc21 (stereo not drawn) .
9.2

---

test system: COLO 205 colon; experiment: NCI tumour cell line growth inhibition, 48 h
attribute measured: TGI

Solved entries:
{"columns": ["compound", "observed result"],
 "data": [
  ["Nc1nnc2nc(CC(=O)/C=C/c3ccccc3)c(=O)[nH]n12", "> 100 µM"],
  ["Cn1c(-c2ccccc2)cc(-c2ccc3c(c2)OCO3)c1-c1cccs1", "> 100 µM"],
  ["C=C1c2nc3ccccc3n2C=C(c2ccc(Cl)cc2)N1c1ccc(OCCN2CCOCC2)cc1", "98.6 µM"],
  ["CC(C)OP(=O)(OC(C)C)C(C(F)(F)F)C(F)(F)F", "> 100 µM"],
  ["OC(c1ccccc1)(c1ccccc1)c1ccccn1", "> 100 µM"]
]}

Identify measured TGI corresponding to "Cc1c2ccccc2c(C)c2c3c(ccc12)C(=O)C=CC3=O"
31.5 µM

Answer with the recorded TGI of CSC1=Nc2c(c(C)c(-c3ccccc3)n2COC(CO)CO)C2=NC(=O)C(C)N12 (configuration not stated) only.
> 100 µM

Please give measured TGI of the following entry: "O=C(CSc1nc2ccc(I)cc2c(=O)n1Cc1ccccc1)N/N=C/c1ccccc1"
> 100 µM

Determine from records and report TGI for "O=C1C(NS(=O)(=O)c2ccccc2)=C(n2cnc3ccccc32)C(=O)c2ccccc21"
> 100 µM

Let me know recorded TGI for "CCOC(=O)/C(C(=S)NC)=C(/N)N1CCCC1" , thanks.
> 100 µM

Give the reported TGI for this compound. "CCCNc1nc(N(C)O)nc(N(C)O)n1"
32.2 µM

Return TGI (reported value) for this compound: O=C1NC(=NCc2cccs2)SC1Cc1ccc2ncccc2c1 (configuration not stated)
> 25 µM

---

system: OVCAR-4 ovarian; assay: NCI tumour cell line growth inhibition, 48 h
Overview of reported TGI across a group of compounds:

For orientation, consider the following solved cases.
{"columns": ["compound", "TGI"],
 "data": [
  ["Cc1ccc(SSCCCS(=O)O)cc1", "> 100 µM"],
  ["C/C(Cl)=N\\OC(=O)Nc1ccc([N+](=O)[O-])cc1", "28.2 µM"],
  ["c1cncc(CNc2ccccc2-c2nnc(Nc3ccc4c(c3)OCO4)o2)c1", "> 100 µM"],
  ["COc1cc2c(cc1OC)C(CCc1ccc(Cl)cc1)N(C)CC2 (stereo unspecified)", "> 100 µM"]
]}

Dear colleague, please send me the reported TGI for "COc1ccc2nc(-c3ccc(OC(=O)N(C)C)cc3)cn2c1" when you can.
> 100 µM

Given "Nc1[nH]c(=O)nc2sc3c(c12)CCCC3" , respond with its TGI.
> 100 µM

Supply TGI value. Item: "COc1cc(N=C(N)N=C(N)N)c2ncccc2c1"
> 100 µM

Input "COC(=O)N1CC[C@@H]2CCC=C(c3cccc4c3OCO4)[C@@H]21" , output reported TGI.
> 100 µM

Return TGI (reported value) for this compound: "c1ccc(Cc2cccc3cc(-c4ccc(-c5ccccc5)cc4)[nH]c23)cc1"
> 100 µM

Answer with the recorded TGI of "NNC(N)=Nc1cccc2ccccc12" only.
> 100 µM

Tell me TGI reported for "CN(c1c(Cl)cccc1Cl)S(=O)(=O)c1ccccc1[N+](=O)[O-]"
> 100 µM

Please report the measured TGI for "Fc1ccc(-c2nc(-c3nc4ccc(Cl)cc4[nH]3)cc3c2[nH]c2ccccc23)cc1"
17.2 µM

Note TGI for the compound shown: "CC(/C=C/c1ncccc1OCCCCCC(=O)O)=N\NC1=NCCN1"
> 100 µM

Using known records, supply TGI for COC(=O)CCC(NC(=S)N/N=C(\C)c1ccccn1)C(=O)OC (stereo unspecified)
> 100 µM

Note down TGI recorded for "COCCc1c(C)c(C#N)c2n(C)c3ccccc3n2c1=O"
> 10 µM

Given C=CCN1C(=O)/C(=c2\sc3n(c2=O)C2C(NN=3)N(CC)C(=O)N2CC)c2ccccc21 (stereo unspecified) , respond with its TGI.
> 100 µM

---

tested on: HS 578T breast; assay: NCI tumour cell line growth inhibition, 48 h
Below is a list of entries, each paired with its recorded TGI value.

Study these solved cases before continuing.
{"columns": ["compound", "TGI"],
 "data": [
  ["CCCCC1Cc2cc(O)ccc2-c2n1c1cc(O)ccc1[n+]2C (centres undefined) (tested in a mixture with another compound)", "> 51.4 µM"],
  ["COc1ccc(C2CCc3nc4nc(N)nc(N)c4cc3C2)cc1 (centres undefined)", "> 100 µM"],
  ["COc1ccc2c(c1)/C(=C(\\C(Cl)=C(\\Cl)N1CCCCC1)[N+](=O)[O-])N2", "> 100 µM"],
  ["O=C(ON=c1c2ccccc2ccc2ccccc12)c1cc([N+](=O)[O-])cc([N+](=O)[O-])c1", "> 100 µM"],
  ["CN1CN(c2ccccc2)C2(CCNCC2)C1=O", "> 100 µM"],
  ["CCOP(=O)(CCP(=O)(OCC)OCC)OCC.C[CH2][Sn]([Cl])([Cl])[CH2]C", "> 100 µM"],
  ["COc1ccc(Nc2c3ccccc3nc3c2c2ccccc2n3C)cc1", "> 100 µM"],
  ["NC(=O)c1cnc2sc3ccccc3n2c1=O", "> 100 µM"]
]}

Give the measured TGI for "CC(=O)Nc1ccc2nncnc2c1"
> 100 µM

Look up and state reported TGI for "O=C(Nc1ccc(Cl)cc1)c1cc(S(=O)(=O)Nc2n[nH]c(=O)[nH]2)c(SSc2cc(Cl)c(C(=O)Nc3ccc(Cl)cc3)cc2S(=O)(=O)Nc2n[nH]c(=O)[nH]2)cc1Cl"
> 100 µM

Tell me TGI reported for CC1=CC(c2ccccc2)OP1(=O)c1ccccc1 (centres undefined)
> 100 µM

// fetch TGI given entry O=C1NC(=NCc2cccs2)SC1Cc1ccc2ncccc2c1 (centres undefined)
> 25 µM

Provide only the value of recorded TGI for CC1C2Cc3ccc(O)cc3C1(C)CCN2C (centres undefined)
> 100 µM

Supply reported TGI belonging to this compound: "COc1cc(N=C(N)N=C(N)N)c2ncccc2c1"
> 100 µM

Hello, please tell me recorded TGI for this one: "C=C1CC[C@@H]2C(C)(C)[C@@H](O)CC[C@@]2(C)[C@@H]1COc1ccc2ccc(=O)oc2c1"
49.5 µM

Query TGI for "CCCCCCCCCc1cc(O)c(O)cc1CCCCCCCCC"
> 10 µM

Assign TGI to the following record: Clc1cc2nc(C3CCCO3)[nH]c2cc1Cl (centres undefined)
> 100 µM

Using the record for "C/C(Cl)=N\OC(=O)Nc1ccc([N+](=O)[O-])cc1" , state its measured TGI.
72.5 µM

Name the recorded TGI of the compound listed here: "CCN1CCC[C@H]1c1cc(O)c2c(c1OC)C[C@H]1C[C@H]3[C@H](N)C(=O)C(C(N)=O)=C(O)[C@@]3(O)C(=O)C1=C2O"
1.12 µM

---

TGI listing for selected molecules.
test system: TK-10 renal; experiment: NCI tumour cell line growth inhibition, 48 h

{"columns": ["molecule", "target under test", "attribute measured", "observed result"],
 "data": [
  ["NC(CCCCCP(=O)(O)O)C(=O)O (stereo not drawn)", "TK-10 renal", "TGI", "> 100 µM"],
  ["COc1cc(N=C(N)N=C(N)N)c2ncccc2c1", "TK-10 renal", "TGI", "> 100 µM"],
  ["CS(C)(=O)=N/C=C\\C(=O)C(Cl)(Cl)Cl", "TK-10 renal", "TGI", "> 100 µM"]
]}

Please respond with reported TGI (system TK-10 renal) for "O=C1/C(=C/c2ccc(O)cc2)NC(=S)N1CN1CCCCC1" .
> 100 µM

State the measured TGI (TK-10 renal) of "CCOP(=O)(CCP(=O)(OCC)OCC)OCC.C[CH2][Sn]([Cl])([Cl])[CH2]C"
52 µM

Look up and report measured TGI (TK-10 renal) for the following molecule: C=CCC(C(=O)OC)C1(C(=O)OC)c2[nH]c3ccccc3c2CCN1Cc1ccccc1 (stereo not drawn)
> 100 µM

For TK-10 renal, give TGI of the listed molecule: "NS(=O)(=O)c1ccc(NNC(=O)c2cccc3c(=O)c4ccccc4[nH]c23)cc1"
> 100 µM

Report its TGI with TK-10 renal as the test system: "CN(C)c1nc(N(C)C)nc(N(C)CN(C)c2ccccc2)n1"
> 100 µM
